- Test system: Metabotropic glutamate receptor 8 (Rattus norvegicus) (UniProt P70579)
- Sequence (P70579 whole entry, looked up): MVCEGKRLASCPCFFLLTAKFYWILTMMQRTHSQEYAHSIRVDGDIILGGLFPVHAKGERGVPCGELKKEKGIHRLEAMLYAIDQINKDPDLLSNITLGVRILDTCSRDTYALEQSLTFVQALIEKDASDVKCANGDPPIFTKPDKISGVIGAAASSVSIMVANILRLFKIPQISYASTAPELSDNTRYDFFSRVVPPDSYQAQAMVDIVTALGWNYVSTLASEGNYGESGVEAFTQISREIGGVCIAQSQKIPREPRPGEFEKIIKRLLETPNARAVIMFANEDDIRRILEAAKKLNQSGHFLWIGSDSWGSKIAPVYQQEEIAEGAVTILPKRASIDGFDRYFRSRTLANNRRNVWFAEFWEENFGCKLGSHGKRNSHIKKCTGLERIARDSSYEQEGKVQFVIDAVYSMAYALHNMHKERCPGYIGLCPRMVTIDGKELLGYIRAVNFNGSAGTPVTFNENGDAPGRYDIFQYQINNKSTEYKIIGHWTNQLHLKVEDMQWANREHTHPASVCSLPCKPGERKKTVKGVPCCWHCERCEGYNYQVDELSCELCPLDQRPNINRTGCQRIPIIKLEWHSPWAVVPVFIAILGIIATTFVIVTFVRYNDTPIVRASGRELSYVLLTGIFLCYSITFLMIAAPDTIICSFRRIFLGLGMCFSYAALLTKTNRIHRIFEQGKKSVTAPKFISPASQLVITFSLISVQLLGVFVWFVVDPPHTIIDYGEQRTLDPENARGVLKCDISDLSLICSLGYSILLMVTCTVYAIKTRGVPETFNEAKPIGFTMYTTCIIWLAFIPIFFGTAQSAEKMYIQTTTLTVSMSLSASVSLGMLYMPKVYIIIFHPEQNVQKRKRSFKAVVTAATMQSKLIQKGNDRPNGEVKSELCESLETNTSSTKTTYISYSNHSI
- Protocol details: mGluR8 Gi/Go-coupled signaling modulation – cell-based, rat, thallium flux, HTS, primary screen (AID 488969)
- Condition details: HEK293 rat mGluR8, GIRK thallium flux, FluoZin2; at 10 µM; stronger effect = higher value; submaximal glutamate (EC20) added with thallium
Over roughly 110,000 compounds, “z-score” has its median near -0.1; the highest 2% begin near 2. The sample holds the highest values, similar compounds and a random draw of the others, so the mix is not that of the screen.
Recorded z-score values for a group of compounds are listed next.
# output: bare number, no unit

Asked: Find the measured z-score: item Cc1cc(C(=O)COc2ncnc3sccc23)c(C)n1C1CC1 , target or system Metabotropic glutamate receptor 8 (Rattus norvegicus) (UniProt P70579).
Given back: -0.349

Asked: Lab note: need z-score for CCOC(=O)C1=C(CSc2nc(-c3ccccc3)ccc2C#N)OC(N)=C(C#N)C1c1ccccc1 (stereo not given) on Metabotropic glutamate receptor 8 (Rattus norvegicus) (UniProt P70579), anyone have it?
Given back: 2.03

---

Each entry below lists one item and its recorded z-score value.
- Test system: Metabotropic glutamate receptor 8 (Rattus norvegicus) (UniProt P70579)
- Protocol details: mGluR8 Gi/Go-coupled signaling modulation – cell-based, rat, thallium flux, HTS, primary screen (AID 488969)
- Condition details: HEK293 rat mGluR8, GIRK (G protein-gated inwardly rectifying potassium channel) thallium flux, FluoZin2; at 10 µM; stronger effect = higher value; submaximal glutamate (EC20) added with thallium
Over roughly 110,000 compounds, “z-score” has its median near -0.1; the highest 2% begin near 2. For the sample, the highest values were picked, then their nearest neighbours and some compounds at random.
Write the number on its own, no unit after it.

Sample answers from the record:
>>> recorded_result("CCOC(=O)C1C(=O)NC(N2CCOCC2)=NC1c1ccco1 (stereo not given)")
-0.222
>>> recorded_result("CCC(c1c(C)[nH]oc1=O)c1c(C)[nH]oc1=O")
0.119
>>> recorded_result("CN1C2C=C3C(C#N)=C(N)C(C#N)(C#N)[C@@H](c4cccc(F)c4)[C@@H]3C1CC2 (stereo not given in full)")
1.32
>>> recorded_result("CCOc1ccc(C(=O)NC(=S)N2CCN(c3ccc(C(F)(F)F)cc3[N+](=O)[O-])CC2)cc1")
0.854
>>> recorded_result("CSc1nc2nccc(-c3ccc(-c4ccccc4)cc3)n2n1")
-0.5
>>> recorded_result("CC1SC(c2ccccc2Cl)NC1=O (stereo not given)")
-0.0543

Asked: Form: Entry = CCn1c(CNC(=O)c2cccc(C)c2)nnc1SCC(=O)NC1CCCCC1C (stereo not given) | System = Metabotropic glutamate receptor 8 (Rattus norvegicus) (UniProt P70579) | z-score = ____
Given back: 0.161

Asked: Record lookup: for Metabotropic glutamate receptor 8 (Rattus norvegicus) (UniProt P70579), what z-score belongs to COc1cccc(OC)c1C(=O)NC(=S)N1CCN(c2ccc(C(F)(F)F)cc2[N+](=O)[O-])CC1 ?
Given back: 0.046

Asked: Recorded z-score for COc1ccc(C(=O)NC(=S)N2CCCCC2)cc1[N+](=O)[O-] with Metabotropic glutamate receptor 8 (Rattus norvegicus) (UniProt P70579), please?
Given back: 1.25

Asked: Lookup: z-score / Metabotropic glutamate receptor 8 (Rattus norvegicus) (UniProt P70579) / CN1C2C=C3C(C#N)=C(N)C(C#N)(C#N)C(c4ccc(Br)cc4)C3C1CC2 (stereo not given)
Given back: 0.361

Numbers sourced from PubChem BioAssay AID488969.
